Test system: colorectal tissue transcripts
Experiment: SAGE of normal, adenoma and cancer colorectal tissue (transcript tag counts)
Design: species or system human
Conditions: SAGE library NC1
Please map values of NC1 (SAGE tag count) to classes as shown: low group (below 9), middle group (9 to below 30), high group (30 or more)

[[record]]
entry_sequence = "CCTGCCCCCC (chemistry not fully specified)"
qualitative_label = "middle group"

[[record]]
entry_sequence = "AATCACAAAT (chemistry not fully specified)"
qualitative_label = "middle group"


// bin(item) where item = GTAGCAGGTG (chemistry not fully specified)
middle group

# bin label for GGCTGCCTGC (chemistry not fully specified)
middle group

Form: Item = AAATCTGGCA (chemistry not fully specified) ; Class = ?
middle group

Field: class (NC1 (SAGE tag count)) — entry: GGGGCAGGGC (chemistry not fully specified)
high group

Hello team, could you let me know which band the following sequence falls into: CTGGCTATCC (chemistry not fully specified)
low group

Which category fits this record: GTATTGGGGC (chemistry not fully specified)
low group

Lab note: sort CCAGGGGAGA (chemistry not fully specified) into the matching NC1 (SAGE tag count) band.
high group

Categorize the following entry: CCTGTGACAG (chemistry not fully specified)
middle group

Data credit: patent US8029764B2
